folding stability dG unfold reference
assay: folding stability dG unfold from chymotrypsin proteolysis; higher = more stable
Express the result in kcal/mol but write the number alone.

>  <CHAIN_SEQUENCE>
SAGGSAGGSMIKRTVTVTVYFPGKPLSIPVEYTSEEELPVVAEEAVKPIIEKVPEYKIPEPKLSAGGSAGGS [r12_230_JUSTAS]

>  <DISPLAY_UNIT>
kcal/mol

>  <folding stability dG unfold>
0.292

$$$$

Field request: folding stability dG unfold | item: SAGGSAGGSAGGSSARVPFPATGAVLEVRVTPDGRPRVRVFNPATGEVVEFPPGAEVGVSAGGSAGGSAGGS [r4_158_TrMRF]
0.762

Field request: folding stability dG unfold | item: SAGGMTFSGVTREQALAIAKALEEEGYVLERVEVVEFPEDGTVRALVVVRDPETDEPLAEIELDIKPSAGGS [r16_750_TrMRF]
1.81

Field request: folding stability dG unfold | item: SAGGSAGGSWDRIKDALRKYGFPPENVKIEFETYPNGNMNVMIRHNGEQIPRNRINKAIQELMSAGGSAGGS [r12_175_TrROS]
1.46
